The entries below pair compounds with IC50 values for Choline/ethanolamine kinase (Homo sapiens, UniProt Q9Y259), as found in several publications.

Example results:
> print(dat)
                               input.smiles  measured.property  test.result
1  COc1cccc(NC(=O)[C@H]2CC[C@@H](n3cnc4c(N)nc(N5CCN(C)CC5)nc43)CC2)c1               IC50      > 10 µM
2  O=C(c1cc([C@H]2CCCN2c2cc(F)cc(F)c2)c2oc(N3CCOCC3)cc(=O)c2c1)N1CCOCC1               IC50      > 50 µM

Data request: Please look up its IC50: COc1cccc(NC(=O)[C@H]2CC[C@@H](n3cnc4c(N)nc(-c5ccc6[nH]ncc6c5)nc43)CC2)c1
Data returned: > 10 µM

Data request: Please look up its IC50: Nc1ncnc2c1ncn2[C@H]1CC[C@@H](C(=O)Nc2ccc(S(=O)(=O)C(F)(F)F)cc2)CC1
Data returned: > 10 µM

Data request: Please look up its IC50: CS(=O)(=O)c1ccc(NC(=O)[C@H]2CC[C@@H](n3cnc4c(N)ncnc43)CC2)cc1
Data returned: > 10 µM

Data request: Please look up its IC50: COc1ncc(-c2cc3c(c(NC(=O)CN4CCOCC4)c2)COC3)cc1NS(C)(=O)=O
Data returned: > 10 µM
